B1: FAM189A2 (parent)
chain: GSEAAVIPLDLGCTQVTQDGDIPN

# Variants of: B1
# ASSAY_REMARKS: protein stability index of a GFP-peptide fusion (GPS, HEK-293T) (PSI 1-6); higher = more stable;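 also: lentivirally expressed fusions sorted by FACS into six bins by GFP to DsRed ratio, PSI derived from sequencing read proportions per bin multiplied by bin number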
# APPLIED_CONDITIONS: c terminus: a fixed tail appended
Can you tell me protein stability index for the items I'm about to list?
API note: the answer field is a bare number with no unit suffix.

Provide one value: measured protein stability index of Q18R 5.09

Provide one value: measured protein stability index of D21Q 4.92

Provide one value: measured protein stability index of T14H 4.91

Provide one value: measured protein stability index of T14M 4.86

Provide one value: measured protein stability index of A5C 4.9

Provide one value: measured protein stability index of G12E 4.86

Provide one value: measured protein stability index of G12L 4.93

Provide one value: measured protein stability index of N24Y 4.91

Provide one value: measured protein stability index of P8K 5

Provide one value: measured protein stability index of T17M 5.14

Provide one value: measured protein stability index of P23R 4.89

Provide one value: measured protein stability index of I7C 5.04
